Numbers sourced from patent US20260092057A1.

Listed here: items and their measured pIC50.
- Tested on: Caki-2 cells
- assay-summary: CTG (CellTiter-Glo) cell viability assay, Caki-2
- Type: cell-based
- experimental-parameters: Homo sapiens, CAKI-2, 72 h, Caki-2, 3-day; read-out: CTG Chempartner/PHA- Caki-2 3-day: Average external-IC50
pIC50: −log10 of the molar value.

Here are 4 compounds together with their reported answers.
{"columns": ["compound", "observation-type", "result"],
 "data": [
  ["Cc1ncsc1-c1ccc([C@H](C)NC(=O)[C@@H]2C[C@@H](O)CN2C(=O)[C@@H](NC(=O)CCCCCC(=O)N2CCN(CC[C@H](CSc3ccccc3)Nc3ccc(S(=O)(=O)NC(=O)c4ccc(N5CC[C@@H](N(C)C)C5)cc4)cc3S(=O)(=O)C(F)(F)F)CC2)C(C)(C)C)cc1", "pIC50", "< 4.52"],
  ["Cc1ncsc1-c1ccc([C@H](C)NC(=O)[C@@H]2C[C@@H](O)CN2C(=O)[C@@H](NC(=O)CCCCC(=O)N2CCN(CC[C@H](CSc3ccccc3)Nc3ccc(S(=O)(=O)NC(=O)c4ccc(N5CCC([C@@H](O)c6ccccc6-c6ccc(Cl)cc6)CC5)cc4)cc3S(=O)(=O)C(F)(F)F)CC2)C(C)(C)C)cc1", "pIC50", "< 4.52"],
  ["Cc1ncsc1-c1ccc([C@H](C)NC(=O)[C@@H]2C[C@@H](O)CN2C(=O)[C@@H](NC(=O)CCCCCC(=O)N(C)CC[C@H](CSc2ccccc2)Nc2ccc(S(=O)(=O)NC(=O)c3ccc(N4CCC([C@@H](O)c5ccccc5-c5ccc(Cl)cc5)CC4)cc3)cc2S(=O)(=O)C(F)(F)F)C(C)(C)C)cc1", "pIC50", "4.52 to 5.00"],
  ["Cc1ncsc1-c1ccc([C@H](C)NC(=O)[C@@H]2C[C@@H](O)CN2C(=O)[C@@H](NC(=O)CCCCCN(C)CCCNc2ccc(S(=O)(=O)NC(=O)c3ccc(N4CCN(CC5=C(c6ccc(Cl)cc6)CC(C)(C)CC5)CC4)cc3Oc3cnc4[nH]ccc4c3)cc2S(=O)(=O)C(F)(F)F)C(C)(C)C)cc1", "pIC50", "< 4.52"]
]}

(Q) Entry Cc1ncsc1-c1ccc(CNC(=O)[C@@H]2C[C@@H](O)CN2C(=O)[C@@H](NC(=O)C2(F)CC2)C(C)(C)C)c(OCCN2CCN(CC[C@H](CSc3ccccc3)Nc3ccc(S(=O)(=O)NC(=O)c4ccc(N5CCC6(CC5)CC(N5CCC[C@H]5c5ccccc5C5CC5)C6)cc4)cc3S(=O)(=O)C(F)(F)F)CC2)c1 has what pIC50?
(A) > 5.30

(Q) Entry Cc1ncsc1-c1ccc([C@H](C)NC(=O)[C@@H]2CC(O)CN2C(=O)[C@@H](NC(=O)CCCCCCC(=O)N2CCN(c3ccc(-c4ccc(Cl)cc4)c(CN4CCN(c5ccc(C(=O)NS(=O)(=O)c6ccc(N[C@H](CCN(C)C)CSc7ccccc7)c([N+](=O)[O-])c6)cc5)CC4)c3)CC2)C(C)(C)C)cc1 (stereo partly shown) has what pIC50?
(A) < 4.52

(Q) Entry Cc1ncsc1-c1ccc([C@H](C)NC(=O)[C@@H]2C[C@@H](O)CN2C(=O)[C@@H](NC(=O)CCC2CCN(CCCNc3ccc(S(=O)(=O)NC(=O)c4ccc(N5CCN([C@H](O)c6ccccc6-c6ccc(Cl)cc6)CC5)cc4Oc4cnc5[nH]ccc5c4)cc3S(=O)(=O)C(F)(F)F)CC2)C(C)(C)C)cc1 has what pIC50?
(A) < 4.52
